tested on: NA uptake, rat brain synaptosomas, HYPOTHALAMUS; test: In vitro NA uptake inhibition on brain synaptosomes (hypothalamus); assay type: biochemical; conditions: listed as (-)-p-FLUORO-MA
readout kind: IC50 (µM)
// note: answer is a bare numeric in µM

Prompt line: Using the record for CNC(C)Cc1ccc(F)cc1 (single isomer, unassigned; (-)) [(-)-p-F-metamphetamine] , report its IC50.
Response line: 7.5

====

test system: DA uptake, rat brain synaptosomas, STRIATUM; experiment: In vitro DA uptake inhibition on brain synaptosomes (striatum); format: biochemical; settings: read-out: In vitro uptake inhibition DA STRIATUM, listed as (-)-p-FLUORO-MA
readout kind: pIC50
Units for pIC50: none; it is -log10 of a concentration expressed in mol/L.

Prompt line: Using the record for CNC(C)Cc1ccc(F)cc1 (single isomer, unassigned; (-)) [(-)-p-F-metamphetamine] , report its pIC50.
Response line: 3.52
